Target: T1, HLA-B35 (B*3501) (human)
T1 construct: Acid-stripped B-LCL
Test: cell competition vs NPDIVC(FI)YQY, stripped BVR B-LCL, FACS

{"binder": "GACDELFSY (also called start 186) [PRAME peptide GACDELFSY]", "censoringQualifier": "=", "IC50, µM": 2.6}
{"binder": "LPTLAKFSPY (also called start 246) [PRAME peptide LPTLAKFSPY]", "censoringQualifier": "<", "IC50, µM": 1}
{"binder": "LPRELFPPL (also called start 48) [PRAME peptide LPRELFPPL]", "censoringQualifier": "<", "IC50, µM": 1}
{"binder": "EPILCPCFM (also called start 499) [PRAME peptide EPILCPCFM]", "censoringQualifier": "<", "IC50, µM": 1}
{"binder": "QPFIPVEVL (also called start 170) [PRAME peptide QPFIPVEVL]", "censoringQualifier": "=", "IC50, µM": 2.83}
{"binder": "SPYLGQMINL [PRAME peptide SPYLGQMINL]", "censoringQualifier": "=", "IC50, µM": 1.98}
{"binder": "IPVEVLVDL (also called start 173) [PRAME peptide IPVEVLVDL]", "censoringQualifier": "=", "IC50, µM": 2.24}
{"binder": "LPRELFPPLF (also called start 48) [PRAME peptide LPRELFPPLF]", "censoringQualifier": "=", "IC50, µM": 1.58}
{"binder": "FPPLFMAAF (also called start 53) [PRAME peptide FPPLFMAAF]", "censoringQualifier": "<", "IC50, µM": 1}

Cited source: patent US20160333065A1
